Hello, the source for this data is ChEMBL document CHEMBL4007490, in case you need it.

Exercise: state measured selectivity ratio for each of the compounds provided.
method notes: Selectivity index, ratio of CC50 for human HepG2A16 cells to IC50 for chloroquine/cycloguanil-resistant Plasmodium falciparum FCR3
Type: toxicity
reported conditions: read-out: Ratio CC50/IC50

-- ask Look up selectivity ratio for this compound: `CC(=O)N/N=C/c1c(C)[n+]([O-])c2ccccc2[n+]1[O-]`
-- reply < 0.87

-- ask Look up selectivity ratio for this compound: `COc1ccc2c(c1)[n+]([O-])c(/C=N/Nc1ccnc3cc(Cl)ccc13)c(C)[n+]2[O-]`
-- reply > 95.3

-- ask Look up selectivity ratio for this compound: `Cc1c(/C=N/Nc2ccnc3cc(Cl)ccc23)[n+]([O-])c2cc(Cl)ccc2[n+]1[O-]`
-- reply > 86.1

-- ask Look up selectivity ratio for this compound: `Cc1c(/C=N/Nc2c(Cl)cc(Cl)cc2Cl)[n+]([O-])c2ccccc2[n+]1[O-]`
-- reply < 1.24

-- ask Look up selectivity ratio for this compound: `Cc1ccc(S(=O)(=O)N/N=C/c2c(C)[n+]([O-])c3ccccc3[n+]2[O-])cc1`
-- reply < 2.41

====

Test system: Plasmodium falciparum
method notes: Antiplasmodial activity against chloroquine-sensitive/sulfadoxine-resistant Plasmodium falciparum 3D7 by [3H]-hypoxanthine incorporation assay
Type: functional
Exercise: state measured IC50 for each of the molecules provided.

-- ask Look up IC50 for this molecule: `Cc1c(/C=N/Nc2c(Cl)cc(Cl)cc2Cl)[n+]([O-])c2ccccc2[n+]1[O-]`
-- reply > 100 µM

-- ask Look up IC50 for this molecule: `Cc1c(/C=N/Nc2ccc(C(=O)O)cc2)[n+]([O-])c2ccccc2[n+]1[O-]`
-- reply > 100 µM

-- ask Look up IC50 for this molecule: `Cc1c(C)[n+]([O-])c2cc(Cl)ccc2[n+]1[O-]`
-- reply > 100 µM

-- ask Look up IC50 for this molecule: `Cc1c(C)[n+]([O-])c2ccccc2[n+]1[O-]`
-- reply > 100 µM

-- ask Look up IC50 for this molecule: `CC(=O)N/N=C/c1c(C)[n+]([O-])c2ccccc2[n+]1[O-]`
-- reply > 100 µM
